B1: Ankyrin-3, residues 4094 to 4171; numbered along this chain, Q12955 (parent)
chain: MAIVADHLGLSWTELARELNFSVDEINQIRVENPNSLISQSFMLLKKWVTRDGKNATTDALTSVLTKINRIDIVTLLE

Variants of: B1
TEST PROTOCOL: abundance fitness (aPCA) (normalised: wild type 0, dead -1); higher = more abundant; growth selection in yeast, the domain comes from the species named
CONDITION DETAILS: Homo sapiens
Class 1: abundance fitness at least -0.1. Class -1: abundance fitness below -0.1.

State whether the measured abundance fitness reaches -0.1, counting equality as reaching it, for M1R
-1

State whether the measured abundance fitness reaches -0.1, counting equality as reaching it, for M1A
-1

State whether the measured abundance fitness reaches -0.1, counting equality as reaching it, for V4R
-1

State whether the measured abundance fitness reaches -0.1, counting equality as reaching it, for A2K
1

State whether the measured abundance fitness reaches -0.1, counting equality as reaching it, for Q28L
-1

State whether the measured abundance fitness reaches -0.1, counting equality as reaching it, for K47H
-1

State whether the measured abundance fitness reaches -0.1, counting equality as reaching it, for S63V
1
